Molecular target: Tyrosyl-DNA phosphodiesterase 2 (Homo sapiens) (UniProt O95551)
Sequence (O95551 whole entry, looked up): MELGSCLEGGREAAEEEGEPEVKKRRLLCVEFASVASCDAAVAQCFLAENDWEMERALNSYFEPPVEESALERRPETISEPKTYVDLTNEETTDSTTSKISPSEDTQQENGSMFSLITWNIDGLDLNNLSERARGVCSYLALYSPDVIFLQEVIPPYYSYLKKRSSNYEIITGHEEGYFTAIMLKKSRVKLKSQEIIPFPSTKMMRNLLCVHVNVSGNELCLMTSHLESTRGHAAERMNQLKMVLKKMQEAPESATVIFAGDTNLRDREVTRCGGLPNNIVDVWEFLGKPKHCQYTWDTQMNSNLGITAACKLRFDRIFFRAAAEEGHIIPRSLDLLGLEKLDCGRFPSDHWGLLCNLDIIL
Test: blockers of TDP2 phosphodiesterase activity – biochemical, epi absorbance, recombinant enzyme, primary screen (AID 720702);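 note: 0% = DMSO with enzyme and 100% = buffer with substrate but no TDP2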
Settings: recombinant TDP2, T5PNP hydrolysis, p-nitrophenol absorbance 415 nm; at 12.8 µM
Out of some 370,000 compounds screened, about 1,200 (0.32%) were called active.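 Rule for the calls: active = inhibition above the mean of all tested compounds plus 3 SD, set per campaign (cut at about 25% in these data); inactive = the rest.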 Only a selection was taken, and actives are over-represented in it overall.
Answer with one of the outcomes given here: yes (1) for active, no (0) for inactive

Use these answered entries as a reference point.
Cc1cc2nc3c(=O)[nH]c(=O)nc-3n(C[C@H](O)[C@H](O)[C@H](O)CO)c2cc1C | no (0)
CCc1cc(=O)oc2cc(OCC(=O)N3CCCc4ccccc43)ccc12 | no (0)
CCOC(=O)C1=C(C(=O)OCC)C2N(Cc3ccc(C#N)cc3)c3ccccc3[C@@]23C[C@@H](C(=O)OC)N(S(=O)(=O)c2ccc(F)cc2)C3=N1 (stereo not given in full) | no (0)
O=C(CSc1nnc2c(n1)[nH]c1ccccc12)NC1CCCCC1 | no (0)

-- ask I would be grateful if you could indicate the recorded call for CCN(CC)CCCC(C)n1c2nc(=O)[nH]c(=O)c-2nc2cc(Cl)ccc21 (stereo not given) .
-- reply yes (1)

###

Assign inhibition to each entry below.
Target: Tyrosyl-DNA phosphodiesterase 2 (Homo sapiens) (UniProt O95551)
Assay: blockers of TDP2 phosphodiesterase activity – biochemical, epi absorbance, recombinant enzyme, primary screen (AID 720702);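 note: 0% = DMSO with enzyme and 100% = buffer with substrate but no TDP2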
Details: recombinant TDP2, T5PNP hydrolysis, p-nitrophenol absorbance 415 nm; at 12.8 µM; stronger effect = higher value
Among all 370,000 compounds or so, about 1,200 (0.32%) were called active. The sample holds actives, similar compounds and a random draw of the others, so the mix is not that of the screen.
One number for each entry, in %.

# annotated cases, reported inhibition shown
CCOc1ccc(C(CC(=O)O)NC(=O)C23CC4CC(CC(C4)C2)C3)cc1OC (centres undefined) | 0.7
CCCCCCCCCCCCN1[C@@H](CC(C)=O)c2cc(F)cc(F)c2S1(=O)=O | 2.78
COc1ccc(C(=O)NCc2ccc(Cl)cc2)cc1S(=O)(=O)N1CCCC1 | -0.23

-- ask Entry CCN(CC(=O)NCc1cccs1)c1nnnn1-c1ccccc1 has what inhibition?
-- reply -4.19

###

Biological target: Tyrosyl-DNA phosphodiesterase 2 (Homo sapiens) (UniProt O95551)
Assay: blockers of TDP2 phosphodiesterase activity – biochemical, epi absorbance, recombinant enzyme, primary screen (AID 720702);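 note: 0% = DMSO with enzyme and 100% = buffer with substrate but no TDP2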
Settings: recombinant TDP2, T5PNP hydrolysis, p-nitrophenol absorbance 415 nm; at 12.8 µM; stronger effect = higher value
The whole screen tested about 370,000 compounds, of which about 1,200 (0.32%) were called active. The list comes from a sample in which actives are over-represented; it also holds close analogues and randomly drawn compounds.
measuredQuantity: inhibition (%)
Numbers only, in %.

CC1=NN(C(=O)Cc2ccc(C)cc2)C(O)(c2cccnc2)C1 (stereo unspecified) | -0.61

Need inhibition for each of these compounds.
1. O=C(Cn1cnc2ccccc2c1=O)NNC(=O)c1ccccc1F
2. NS(=O)(=O)c1cc(C(=O)OCC(=O)NNC(=O)c2ccccc2)ccc1Cl

-- reply
1. 4.65
2. -0.47

Need inhibition for each of these compounds.
1. CCn1c(SCC(C)=O)nc2sc3c(c2c1=O)CCCC3
2. Cc1nc([N+](=O)[O-])cn1CC(=O)Nc1ccc(Cl)cc1
3. Cc1ccc(S(=O)(=O)NNC(=S)NC(C)(C)C)cc1
4. COC(=O)[C@]12C[C@H](CC(=O)NCCc3ccccc3OC)C(=O)N(Cc3ccccc3)C1=C[C@H](C(C)C)O[C@@H]2C1CC1
5. O=C(NCCCc1ccccc1)[C@H](Cc1ccccc1)NC1(C(=O)NCCc2c[nH]c3ccccc23)CCC1

-- reply
-7.52
7.84
0.38
-7.01
2.05

Need inhibition for each of these compounds.
1. O=C(CSc1nc2sc3c(c2c(=O)n1-c1ccccc1)CCCC3)NN=Cc1ccc(OCc2ccccc2)cc1
2. C=CCn1c(SCc2ccc(Cl)c(Cl)c2)nnc1C(CO)NC(=O)c1ccc(OC)cc1 (stereo unspecified)
3. C=CCO/N=C(\C)c1c(O)c(C)c(-c2ccccc2)n(-c2ccccc2)c1=O

-- reply
8.18
-1.56
-4.01

These measurements were taken from PubChem BioAssay AID720702.
